Hello, the source for this data is the supplement of paper PMC10307832, in case you need it.

Could you please report measured relative viability for the items listed next?
tested on: NCI-H838; assay: relative viability (nuclei count vs DMSO), 5 days (fraction); higher = more cells survive; details: first compound 0.05 µM

Nc1ccn([C@@H]2O[C@H](CO)[C@@H](O)[C@@H]2O)c(=O)n1 [Cytarabine] + COc1cccc2cc(-c3nc([C@H]4CC[C@H](C(=O)O)CC4)n4ncnc(N)c34)[nH]c12 [OSI-027] (partner 0.5 µM)	0.4

For every item below, please supply its relative viability.
1. COc1cc2nccc(Oc3ccc(NC(=O)Nc4cc(C)on4)c(Cl)c3)c2cc1OC [Tivozanib] + Nc1ncn([C@H]2C[C@H](O)[C@@H](CO)O2)c(=O)n1 [Decitabine] (partner 2 µM)
2. Nc1ccn([C@@H]2O[C@H](CO)[C@@H](O)[C@@H]2O)c(=O)n1 [Cytarabine] + Nc1nc2[nH]cc(CCc3ccc(C(=O)N[C@@H](CCC(=O)O)C(=O)O)cc3)c2c(=O)[nH]1 [Pemetrexed] (partner 0.2 µM)
3. COc1cc2nccc(Oc3ccc(NC(=O)Nc4cc(C)on4)c(Cl)c3)c2cc1OC [Tivozanib] + O=C(c1cc(Cc2n[nH]c(=O)c3ccccc23)ccc1F)N1CCN(C(=O)C2CC2)CC1 [Olaparib] (partner 8 µM)

0.446
0.272
0.825
